biological target: D820A KIT (Homo sapiens, UniProt P10721, D820A); construct: V5 (vector-encoded); assay: CHO K1 phospho-KIT Western; conditions: transient transfected CHO K1 cells, phospho-KIT (Tyr719), read-out: KIT kinase domain mutations (primary/secondary): D820A
Sequence (P10721 26-976 D820A): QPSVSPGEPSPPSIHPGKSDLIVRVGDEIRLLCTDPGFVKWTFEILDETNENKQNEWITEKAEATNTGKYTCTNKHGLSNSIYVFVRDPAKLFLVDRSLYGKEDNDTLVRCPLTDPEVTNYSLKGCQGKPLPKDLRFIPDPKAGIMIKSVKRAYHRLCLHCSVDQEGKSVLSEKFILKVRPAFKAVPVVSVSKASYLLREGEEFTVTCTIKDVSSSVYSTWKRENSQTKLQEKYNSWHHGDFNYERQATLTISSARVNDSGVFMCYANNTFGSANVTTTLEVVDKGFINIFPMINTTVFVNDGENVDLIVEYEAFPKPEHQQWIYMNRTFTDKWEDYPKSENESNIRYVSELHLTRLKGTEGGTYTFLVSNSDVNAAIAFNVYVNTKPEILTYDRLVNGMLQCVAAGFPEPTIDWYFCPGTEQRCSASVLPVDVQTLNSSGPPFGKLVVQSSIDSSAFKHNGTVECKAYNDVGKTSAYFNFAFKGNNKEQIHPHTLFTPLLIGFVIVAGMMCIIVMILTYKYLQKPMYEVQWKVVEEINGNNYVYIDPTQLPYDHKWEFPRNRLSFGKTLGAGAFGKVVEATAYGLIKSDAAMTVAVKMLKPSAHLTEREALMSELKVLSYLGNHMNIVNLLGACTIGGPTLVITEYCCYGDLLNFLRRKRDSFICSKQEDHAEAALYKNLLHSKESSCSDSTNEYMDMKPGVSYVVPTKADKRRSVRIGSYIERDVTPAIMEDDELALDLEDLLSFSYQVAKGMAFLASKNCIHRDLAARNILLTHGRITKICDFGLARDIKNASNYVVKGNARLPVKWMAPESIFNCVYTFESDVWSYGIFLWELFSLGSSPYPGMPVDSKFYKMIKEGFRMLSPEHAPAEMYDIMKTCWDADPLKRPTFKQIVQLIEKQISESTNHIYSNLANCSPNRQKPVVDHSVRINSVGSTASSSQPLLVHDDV
ATTRIBUTE MEASURED: IC50

CCn1c(=O)c(-c2cc(NC(=O)Nc3ccccc3)c(F)cc2C)cc2cnc(NC)cc21 : 10 to 100 nM

Next compound, IC50 to be filled in.
Exercise: Which measured IC50 value corresponds to "CCn1c(=O)c(-c2cc(NC(=O)Nc3csc4ccccc34)c(F)cc2C)cc2cnc(NC)cc21" ?
Solution: 10 to 100 nM

* * *

molecular target: c-KIT kinase (Homo sapiens, UniProt P10721); assay: c-KIT kinase Assay; format: biochemical; design: cKIT residues T544-V976; GST (N); TEV cleavage site (internal); purchased deCODE Biostructures; conditions: enzymatic assay, ATP 200 µM; read-out: KIT (wt) IC50
Sequence (P10721 544-976): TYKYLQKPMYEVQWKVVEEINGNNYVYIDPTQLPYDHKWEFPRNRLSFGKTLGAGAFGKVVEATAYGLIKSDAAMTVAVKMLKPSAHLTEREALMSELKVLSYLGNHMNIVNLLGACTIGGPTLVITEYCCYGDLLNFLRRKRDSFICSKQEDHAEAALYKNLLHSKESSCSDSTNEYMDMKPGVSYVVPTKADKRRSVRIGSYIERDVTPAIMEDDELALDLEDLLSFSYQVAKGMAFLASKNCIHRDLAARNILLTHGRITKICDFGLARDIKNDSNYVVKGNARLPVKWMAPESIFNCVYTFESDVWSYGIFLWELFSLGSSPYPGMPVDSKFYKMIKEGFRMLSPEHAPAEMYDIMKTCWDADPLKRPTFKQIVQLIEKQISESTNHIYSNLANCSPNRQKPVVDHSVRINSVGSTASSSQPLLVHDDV
Item-by-item account of IC50

CCn1c(=O)c(-c2cc(NC(=O)Nc3ccccc3)c(F)cc2Cl)cc2cnc(NC(=O)N3CC[C@H](N(C)C)C3)cc21 [Example 96] : < 10 nM
CCn1c(=O)c(-c2cc(NC(=O)Nc3csc4ccccc34)c(F)cc2C)cc2cnc(NC)cc21 [Example 59] : 10 to 100 nM
CCn1c(=O)c(-c2cc(NC(=O)Nc3ccc(F)c(CN4CCN(C)CC4)c3)c(F)cc2C)cc2cnc(NC=O)cc21 [Example 100] : 10 to 100 nM
CCn1c(=O)c(-c2cc(NC(=O)Nc3cccc(F)c3)c(F)cc2Cl)cc2cnc(NCCOC)cc21 [Example 28] : 10 to 100 nM
CCn1c(=O)c(-c2cc(NC(=O)Nc3cc(F)ccc3F)c(F)cc2Cl)cc2cnc(NC)cc21 [Example 68] : < 10 nM

Exercise: Form entry - test system: c-KIT kinase (Homo sapiens, UniProt P10721); read-out: IC50; compound: CCn1c(=O)c(-c2cc(NC(=O)Nc3cccc(F)c3)c(F)cc2C)cc2cnc(NC3CC3)cc21 [Example 45]
Solution: < 10 nM

Exercise: Then what about the compound CCn1c(=O)c(-c2cc(NC(=O)Nc3ccccc3)c(F)cc2C)cc2cnc(NCCOC)cc21 [Example 37] ?
Solution: < 10 nM

* * *

target: c-KIT D816V kinase (Homo sapiens, UniProt P10721, D816V); construct: residues T544-V976 with N-terminal GST fusion; assay: c-KIT D816V kinase Assay; conditions: enzymatic assay, ATP 200 uM
Sequence (P10721 544-976 D816V): as the sequence (P10721 544-976) above, with D273V counted along it
Item-by-item account of IC50

Reference set (4 entries):
CCn1c(=O)c(-c2cc(NC(=O)Nc3cc(F)cc(F)c3)c(F)cc2C)cc2cnc(NC)cc21 : 10 to 100 nM
CCn1c(=O)c(-c2c(Cl)ccc(NC(=O)Nc3ccccc3)c2F)cc2cnc(NC)cc21 : > 1000 nM
CCn1c(=O)c(-c2cc(NC(=O)Nc3cccc(F)c3)c(F)cc2C)cc2cnc(NC)cc21 : 10 to 100 nM
CCn1c(=O)c(-c2cc(NC(=O)Nc3cccc(F)c3)c(F)cc2Br)cc2cnc(NC)cc21 : 10 to 100 nM

Exercise: Which measured IC50 value corresponds to "CCn1c(=O)c(-c2cc(NC(=O)Nc3ccccc3)c(F)cc2F)cc2cnc(NCCOC)cc21" ?
Solution: 10 to 100 nM

Exercise: Then what about the compound "CCn1c(=O)c(-c2cc(NC(=O)Nc3ccccc3)ccc2Cl)cc2cnc(NC)cc21" ?
Solution: 10 to 100 nM

Exercise: Then what about the compound "CNc1cc2c(cn1)cc(-c1cc(NC(=O)Nc3cccc(C#N)c3)c(F)cc1Cl)c(=O)n2C" ?
Solution: 10 to 100 nM

Exercise: Then what about the compound "CCn1c(=O)c(-c2cc(NC(=O)Nc3cccc(CN4CCN(C)CC4)c3)c(F)cc2Br)cc2cnc(NC)cc21" ?
Solution: 100 to 1000 nM

Exercise: Then what about the compound "CCn1c(=O)c(-c2cc(NC(=O)Nc3ccccc3)c(F)cc2I)cc2cnc(NC)cc21" ?
Solution: 100 to 1000 nM
